target: T1, human VEGF165 (REGN110) (human, UniProt P15692 207-395); assay: SPR, Biacore, 25 C; trap captured on anti-VEGFR1 mAb surface, hVEGF165 injected; 1:1 fit
T1 construct: also called hVEGF165; hVEGF165(M1-R191)
T1 sequence (P15692 other isoform, or with tags, fused parts or gaps): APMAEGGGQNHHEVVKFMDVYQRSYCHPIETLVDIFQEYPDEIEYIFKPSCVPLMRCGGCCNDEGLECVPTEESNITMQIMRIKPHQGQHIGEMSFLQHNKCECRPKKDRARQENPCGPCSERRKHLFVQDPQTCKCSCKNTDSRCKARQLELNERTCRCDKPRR
Entries and their pKd values follow.
// field semantics: pKd = negative decimal log of concentration (mol/L)

Recorded results for 3 binders are shown here.
binder | result_number
REGN7850 (VEGF mini-trap-hFc …) (receptor, Recombinant homodimer; also called REGN7850 (CPPCPPC)) SDTGRPFVEMYSEIPEIIHMTEGRELVIPCRVTSPNITVTLKKFPLDTLIPDGKRIIWDSRKGFIISNATYKEIGLLTCEATVNGHLYKTNYLTHRQTNTIIDVVLSPSHGIELSVGEKLVLNCTARTELNVGIDFNWEYPSSKHQHKKLVNRDLKTQSGSEMKKFLSTLTIDGVTRSDQGLYTCAASSGLMTKKNSTFVRVHEKDKTHTCPPCPPC | 11.81
REGN7851 (VEGF mini-trap-hFc …) (receptor, Recombinant homodimer; also called REGN7851 (CPPCPPCPPC)) SDTGRPFVEMYSEIPEIIHMTEGRELVIPCRVTSPNITVTLKKFPLDTLIPDGKRIIWDSRKGFIISNATYKEIGLLTCEATVNGHLYKTNYLTHRQTNTIIDVVLSPSHGIELSVGEKLVLNCTARTELNVGIDFNWEYPSSKHQHKKLVNRDLKTQSGSEMKKFLSTLTIDGVTRSDQGLYTCAASSGLMTKKNSTFVRVHEKDKTHTCPPCPPCPPC | 11.74
REGN7483^R (homodimer mini-trap, recombinant) (receptor, N-linked glycans at N36, N68, N123, N196 (Table C), also called Recombinant dimer mini-trap) SDTGRPFVEMYSEIPEIIHMTEGRELVIPCRVTSPNITVTLKKFPLDTLIPDGKRIIWDSRKGFIISNATYKEIGLLTCEATVNGHLYKTNYLTHRQTNTIIDVVLSPSHGIELSVGEKLVLNCTARTELNVGIDFNWEYPSSKHQHKKLVNRDLKTQSGSEMKKFLSTLTIDGVTRSDQGLYTCAASSGLMTKKNSTFVRVHEKDKTHTCPPCPAPELLG | 11.80

Note: attention shifts to another entry.
GET /values?readout=pKd&item= REGN7483^F (homodimer mini-trap, FabRICATOR cleaved from aflibercept) (receptor, N-linked glycans at N36, N68, N123, N196 (Table C), Disulfide-linked homodimer made by IdeS cleavage of aflibercept; also called dimer mini-trap from FabRICATOR (IdeS) cleavage of REGN3) SDTGRPFVEMYSEIPEIIHMTEGRELVIPCRVTSPNITVTLKKFPLDTLIPDGKRIIWDSRKGFIISNATYKEIGLLTCEATVNGHLYKTNYLTHRQTNTIIDVVLSPSHGIELSVGEKLVLNCTARTELNVGIDFNWEYPSSKHQHKKLVNRDLKTQSGSEMKKFLSTLTIDGVTRSDQGLYTCAASSGLMTKKNSTFVRVHEKDKTHTCPPCPAPELLG 11.88
